For each of the compounds below, state its composite z-score.
target: Torsin-1A-interacting protein 1 (Homo sapiens) (UniProt Q5JTV8); assay: LAP1 binders from COS7 cell lysate, primary screen, small-molecule microarray, 635/667 nm fluorescence (AID 1116); conditions: COS7-hLAP1 lysate binding, 635 nm fluorescence, higher = more signal
Sequence (Q5JTV8 whole entry, looked up): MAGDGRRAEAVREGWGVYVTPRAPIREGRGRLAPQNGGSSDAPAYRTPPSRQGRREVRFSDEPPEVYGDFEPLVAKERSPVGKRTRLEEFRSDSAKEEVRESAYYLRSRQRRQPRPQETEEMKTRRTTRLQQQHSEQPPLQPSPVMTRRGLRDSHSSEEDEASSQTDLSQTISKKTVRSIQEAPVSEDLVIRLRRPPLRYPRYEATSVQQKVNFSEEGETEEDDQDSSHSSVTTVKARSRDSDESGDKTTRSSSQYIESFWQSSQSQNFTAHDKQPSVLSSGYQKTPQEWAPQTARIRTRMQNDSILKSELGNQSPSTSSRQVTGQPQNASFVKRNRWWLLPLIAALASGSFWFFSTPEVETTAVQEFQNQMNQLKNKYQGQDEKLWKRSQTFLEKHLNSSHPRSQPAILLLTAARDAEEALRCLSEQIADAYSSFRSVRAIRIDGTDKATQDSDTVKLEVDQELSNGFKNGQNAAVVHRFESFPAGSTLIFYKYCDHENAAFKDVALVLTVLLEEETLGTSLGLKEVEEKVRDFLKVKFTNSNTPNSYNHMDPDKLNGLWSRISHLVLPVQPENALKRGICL

Which composite z-score is reported for this compound? CCOC(=O)C[C@H]1[C@H](OC(=O)c2ccc(C(=O)c3ccccc3)cc2)[C@@H](NC(=O)c2ccc3ccccc3n2)c2cc(OCCCO)ccc2N1C(=O)c1ccccc1
0.164

Quick one: COCCOC(=O)N1C(=O)[C@@]2(c3cc(C#CC4(O)CCCCCC4)ccc31)[C@H](c1ccc(OCCO)cc1)N1[C@H](c3ccccc3)[C@H](c3ccccc3)OC(=O)[C@H]1[C@@H]2C(=O)N1CCN(c2ncccn2)CC1
0.667

Queued: C=C(COC)C(=O)CC[C@@H](OC(C)=O)c1ccc(CO)o1
0.55

# iterate: CC(C)C(=C=CC[C@H](O)c1ccc(OCCO)cc1)CCO
0.828

Now the compound CCCCCN1CC=CC23O[C@@H]4/C=C\CCC(C)OC(=O)C4[C@H]2C(=O)N(C(C)CO)[C@@H]3C1=O (some centres undefined)
-0.537

Ok, now CCC[C@@H]1C[C@@]1(CCC)[C@@H](NS(=O)(=O)c1cccc2cccnc12)c1ccc(Cl)cc1
0.731

Record: Oc1ccc2cc[n+](Cc3sc4ccccc4c3Cl)cc2c1
1.22

Continue with C=CC[C@]1(C(=O)NCc2ccccc2)N=C(c2ccc(OCCCO)cc2)O[C@H]1c1ccccc1N=[N+]=[N-]
1.44

Now consider CN1C(=O)C2C=CC(C(O)c3ccco3)N(Nc3ccccc3)C2C1=O (centres undefined) .
0.272

---

I'd be grateful if you could share measured composite z-score for these entries.
biological target: Torsin-1A (Homo sapiens); assay: small-molecule binders of mutant TOR1A in lysate, primary screen, cell lysate, small-molecule microarray, COS7 lysate, 635/667 nm fluorescence (AID 1150); details: COS7 hTOR1A mutant lysate, 635 nm fluorescence, higher = more signal;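 note: score pools 667 nm emission and signal to noise measuring lysate protein binding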
Give the figure only, with no unit attached.

Hello, I am looking for reported composite z-score with Torsin-1A (Homo sapiens) for NC(=O)N1C(=O)C2C(C1=O)C1C=C(c3ccc(CO)cc3)C2C(c2cccs2)N1Cc1cccc(OC(F)(F)F)c1 (stereo not drawn) . Could you help?
0.522

What about CCc1cccc(NC(=O)O[C@H]2[C@H](OC(=O)Nc3ccccc3-c3ccccc3)[C@@H](OC(=O)Nc3ccccc3-c3ccccc3)[C@@H](OC)O[C@@H]2CO)c1 ?
1.64

Param item: C=CCC(OC(C)=O)[C@@H]1[C@@H](N(Cc2cc3ccccc3o2)C(=O)c2cccc3ccccc23)c2cc(OCCCO)ccc2N1C(=O)c1ccc(-c2ccccc2)cc1 (stereo partly drawn)
0.223

Try this compound next: COc1ccc(/C=C/C=O)cc1
0.0564

// repeat for COCCCNC(=O)[C@@]1(C)c2ccccc2C(=O)N(C(C)C)[C@H]1c1ccc(CO)cc1 and report
0.776

Repeat for the following compound: COCCOC(=O)N1C(=O)[C@@]2(c3cc(C#CCC(C(=O)OC)C(=O)OC)ccc31)[C@H](c1ccccc1OCCO)N1[C@H](c3ccccc3)[C@H](c3ccccc3)OC(=O)[C@H]1[C@@H]2C(=O)N1CCN(c2ncccn2)CC1
1.19

Check O=C1c2ccccc2[C@](Cc2ccccc2I)(C(=O)NCCN2CCOCC2)[C@H](c2ccc(CO)cc2)N1Cc1ccccc1Cl too.
0.244

Next: COC(=O)C[C@H]1O[C@]2(C(=O)N(C)c3ccccc32)[C@@H](C)[C@@H]1[Si](C)(C)F
0.164
